Entry source: patent US8551978B2

Give pEC50 for every item shown.
# experimental_system: UniProtKB P07550
# Sequence (P07550 whole entry): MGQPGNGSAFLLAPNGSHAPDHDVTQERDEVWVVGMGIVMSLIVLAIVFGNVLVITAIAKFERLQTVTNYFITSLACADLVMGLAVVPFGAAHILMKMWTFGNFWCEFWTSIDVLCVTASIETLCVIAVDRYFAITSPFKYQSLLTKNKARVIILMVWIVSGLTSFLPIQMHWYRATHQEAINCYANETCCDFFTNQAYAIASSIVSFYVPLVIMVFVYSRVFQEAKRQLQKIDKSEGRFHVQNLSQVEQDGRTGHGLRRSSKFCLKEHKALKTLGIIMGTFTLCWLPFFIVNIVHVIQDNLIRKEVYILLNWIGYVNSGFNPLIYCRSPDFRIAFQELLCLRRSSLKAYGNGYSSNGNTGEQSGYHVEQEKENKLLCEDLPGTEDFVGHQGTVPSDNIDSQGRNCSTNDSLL
# protocol_summary: Assay for determining adrenergic receptor agonist potency (cAMP Flashplate, HEK-293 cells)
# run_conditions: data rounded to nearest 1 nM
In textbook form, pEC50 equals minus log to base ten of the concentration in mol/L.

Known value: UniProtKB P07550 pEC50 of the compound `C[C@H](Cc1ccc(CCNC(=O)Cc2ccc(N(C)C(=O)CCN3CCC(OC(=O)Nc4ccccc4-c4ccccc4)CC3)cc2)cc1)NC[C@H](O)c1ccc(O)c2[nH]c(=O)ccc12` equals 9.00

Known value: UniProtKB P07550 pEC50 of the compound `C[C@@H](Cc1cccc(CC(=O)NCc2ccc(N(C)C(=O)CCN3CCC(OC(=O)Nc4ccccc4-c4ccccc4)CC3)cc2)c1)NC[C@H](O)c1ccc(O)c2[nH]c(=O)ccc12` equals 9.00

Known value: UniProtKB P07550 pEC50 of the compound CC(Cc1ccc(CNC(=O)c2cccc(N(C)C(=O)CCN3CCC(OC(=O)Nc4ccccc4-c4ccccc4)CC3)c2)cc1)NC[C@H](O)c1ccc(O)c2[nH]c(=O)ccc12 (stereo partly shown) equals 9.00

Known value: UniProtKB P07550 pEC50 of the compound CC(Cc1ccc(CCNC(=O)Cc2ccc(N(C)C(=O)CCN3CCC(OC(=O)Nc4ccccc4-c4ccccc4)CC3)cc2)cc1)NC[C@H](O)c1ccc(O)c2[nH]c(=O)ccc12 (stereo partly shown) equals 9.00

Known value: UniProtKB P07550 pEC50 of the compound `COc1ccc(CC(=O)NCc2ccc(N(C)C(=O)CCN3CCC(OC(=O)Nc4ccccc4-c4ccccc4)CC3)cc2)cc1C[C@H](C)NC[C@H](O)c1ccc(O)c2[nH]c(=O)ccc12` equals 8.70

Known value: UniProtKB P07550 pEC50 of the compound `CN(C(=O)CCN1CCC(OC(=O)Nc2ccccc2-c2ccccc2)CC1)c1cccc(CC(=O)Nc2ccc(CCNC[C@H](O)c3ccc(O)c4[nH]c(=O)ccc34)cc2)c1` equals 9.00

Known value: UniProtKB P07550 pEC50 of the compound `COc1ccc(CC(=O)NCc2ccc(N(C)C(=O)CCN3CCC(OC(=O)Nc4ccccc4-c4ccccc4)CC3)cc2)cc1C[C@@H](C)NC[C@H](O)c1ccc(O)c2[nH]c(=O)ccc12` equals 9.00

Known value: UniProtKB P07550 pEC50 of the compound CC(Cc1cc(CC(=O)NCc2ccc(N(C)C(=O)CCN3CCC(OC(=O)Nc4ccccc4-c4ccccc4)CC3)cc2)ccc1F)NC[C@H](O)c1ccc(O)c2[nH]c(=O)ccc12 (stereo partly shown) equals 9.00

Known value: UniProtKB P07550 pEC50 of the compound `C[C@@H](Cc1cccc(NC(=O)c2cccc(N(C)C(=O)CCN3CCC(OC(=O)Nc4ccccc4-c4ccccc4)CC3)c2)c1)NC[C@H](O)c1ccc(O)c2[nH]c(=O)ccc12` equals 9.00

Known value: UniProtKB P07550 pEC50 of the compound COc1ccc(CC(=O)Nc2cccc(N(C)C(=O)CCN3CCC(OC(=O)Nc4ccccc4-c4ccccc4)CC3)c2)cc1CC(C)NC[C@H](O)c1ccc(O)c2[nH]c(=O)ccc12 (stereo partly shown) equals 8.70
